Attribution: patent US20250243190A1

Experiment: CC50 accompanying the influenza A assay
Type: cell-based
Settings: influenza A test
From the text: The assay for measuring influenza A has been described in general in Antimicrob. Agents Chemother. 2015; 59:2062 and applied to compounds of the present invention furnished the following representative results: […]
OBSERVABLE: CC50 (µM)
Please give a number only; it is taken to be in µM.

Any idea what its CC50 is? The molecule is "[2H]C([2H])([2H])OC(=O)c1c(-c2c(F)cccc2Cl)noc1-c1cnn(-c2cccc(Cl)c2)c1C(F)(F)F" 82

----------
test: Microsomal stability, mouse liver microsomes; conditions: male, mouse, mouse liver microsomes batch 0010003 male (Corning), 60 min
OBSERVABLE: microsomal CLint (µL/min/mg)
Please give a number only; it is taken to be in µL/min/mg.

Any idea what its microsomal CLint is? The compound is "[2H]C([2H])(CC(C)(C)O)n1ncc(-c2onc(-c3c(F)cccc3Cl)c2-c2ncccn2)c1C(F)(F)F" 24

----------
test: Microsomal stability, mouse liver microsomes; conditions: female, mouse, mouse liver microsomes batch 4338001 female (Corning), 60 min
OBSERVABLE: microsomal CLint (µL/min/mg)
Please give a number only; it is taken to be in µL/min/mg.

Any idea what its microsomal CLint is? The compound is "[2H]C([2H])(CC(C)(C)O)n1ncc(-c2onc(-c3c(F)cccc3Cl)c2-c2ncccn2)c1C(F)(F)F" 43.9

----------
test: Mouse pharmacokinetics, oral or intravenous cassette dosing; format: in vivo, mice (C57BL/6J); settings: C57BL/6J, whole blood, female mice, 5 mg/kg oral, cassette, sampling to 24 h
OBSERVABLE: Cmax (ng/mL)
Please give a number only; it is taken to be in ng/mL.

Any idea what its Cmax is? The compound is "[2H]C([2H])(CC(C)(C)O)n1ncc(-c2onc(-c3c(F)cccc3Cl)c2-c2ncccn2)c1C(F)(F)F" 301

----------
assay: Rat pharmacokinetics, oral or intravenous cassette dosing; format: in vivo, rats (strain Wistar RjHAN); details: Wistar RjHAN, rat, plasma; female rats, po 5 mg/kg
OBSERVABLE: AUC(0-t)
Answer format: number, then unit.

Any idea what its AUC(0-t) is? The compound is "[2H]C([2H])(CC(C)(C)O)n1ncc(-c2onc(-c3c(F)cccc3Cl)c2-c2ncccn2)c1C(F)(F)F" 2930 ng·h/mL

----------
assay: Microsomal stability, rat liver microsomes; conditions: rat liver microsomes 9078001 (Corning), 60 min, Example 102 experiment
OBSERVABLE: microsomal CLint (µL/min/mg)
Please give a number only; it is taken to be in µL/min/mg.

Any idea what its microsomal CLint is? The compound is [2H]C([2H])(OC1CC1)c1c(-c2c(F)cccc2Cl)noc1-c1cnn(-c2cccc(Cl)c2)c1C(F)(F)F [Example 102] 29.4

----------
Here the recorded AUC(0-t) is given for each entry.
Assay: Mouse pharmacokinetics, oral or intravenous cassette dosing
Format: in vivo, mice (C57BL/6J)
Conditions: C57BL/6J, whole blood, 3 female mice, 5 mg/kg oral cassette, sampling 0.25-8 h, read-out: AUC0-8 h
Protocol: The pharmacokinetics of the compounds of the present invention was evaluated in 3 male and 3 female mice (C57BL/6J, 8 week old) after oral or intravenous cassette dosing to assess the oral bioavailability. […] The pharmacokinetics of additional compounds of the present invention was evaluated in 3 female mice (C57BL/6J, 8 week old) after oral cassette dosing. […]
Please give a number only; it is taken to be in ng·h/mL.

ITEM_SMILES | AUC(0-t) / ng·h/mL
[2H]C([2H])(OC([2H])(C([2H])([2H])[2H])C([2H])([2H])[2H])c1c(-c2c(F)cccc2Cl)noc1-c1cnn(-c2cccc(Cl)c2)c1C(F)(F)F | 280
[2H]C([2H])(OC(C)C)c1c(-c2c(F)cccc2Cl)noc1-c1cnn(-c2cccc(Cl)c2)c1C(F)(F)F | 2350

Any idea what its AUC(0-t) is? The molecule is "[2H]c1nc(-c2c(-c3c(F)cccc3Cl)noc2-c2cnn(-c3cccc(Cl)c3)c2C(F)(F)F)sc1[2H]" 871

----------
experiment: Microsomal stability, human liver microsomes; conditions: both
Here the recorded microsomal CLint is given for each entry.
Please give a number only; it is taken to be in µL/min/mg.

Answered examples (4):
COMPOUND | UNIT_TEXT | microsomal CLint
[2H]C(C)(O)Cn1ncc(-c2onc(-c3c(F)cccc3Cl)c2-c2ncccn2)c1C(F)(F)F (centres unmarked) [Comparative Example C1/1, reference compound] | µL/min/mg | 10.5
[2H]C([2H])(OC1CC1)c1c(-c2c(F)cccc2Cl)noc1-c1cnn(-c2cccc(Cl)c2)c1C(F)(F)F [Example 102] | µL/min/mg | 6.7
[2H]C([2H])(CC(C)(C)O)n1ncc(-c2onc(-c3c(F)cccc3Cl)c2-c2ncccn2)c1C(F)(F)F [Example 3] | µL/min/mg | 2.2
[2H]C(C)(O)C([2H])([2H])n1ncc(-c2onc(-c3c(F)cccc3Cl)c2-c2ncccn2)c1C(F)(F)F (centres unmarked) [Example 1/1] | µL/min/mg | 7.8

Could you now look at the following compound, please?
Any idea what its microsomal CLint is? The compound is CC(O)Cn1ncc(-c2onc(-c3c(F)cccc3Cl)c2-c2ncccn2)c1C(F)(F)F (centres unmarked) [Comparative Example C1/2, reference compound] 15.7

----------
assay: Microsomal stability, human liver microsomes; conditions: male
OBSERVABLE: microsomal CLint (µL/min/mg)
Please give a number only; it is taken to be in µL/min/mg.

Any idea what its microsomal CLint is? The compound is [2H]C([2H])(CC(C)(C)O)n1ncc(-c2onc(-c3c(F)cccc3Cl)c2-c2ncccn2)c1C(F)(F)F [Example 3] 1.1

----------
test: Cell viability assay accompanying the SARS-CoV-2 assay; type: cell-based; conditions: cell viability assay of the SARS-CoV-2 test
Mark met only for CC50 values smaller than 20 µM; exact matches and larger values are not met.

ITEM_SMILES | ASSIGNED_CLASS
[2H]C([2H])(OC([2H])([2H])C([2H])([2H])[2H])c1c(-c2c(F)cccc2Cl)noc1-c1cnn(-c2cccc(Cl)c2)c1C(F)(F)F | not met

Please check: CC50 for "[2H]C([2H])([2H])OC(=O)c1c(-c2c(F)cccc2Cl)noc1-c1cnn(C([2H])([2H])CC(C)(C)O)c1C(F)(F)F" , strictly under 20 µM or not? not met

Please check: CC50 for "[2H]C([2H])(CC(C)(C)O)n1ncc(-c2onc(-c3c(F)cccc3Cl)c2-c2nccs2)c1C(F)(F)F" , strictly under 20 µM or not? met

Please check: CC50 for "[2H]C([2H])(OC(C)C)c1c(-c2c(F)cccc2Cl)noc1-c1cnn(-c2cccc(Cl)c2)c1C(F)(F)F" , strictly under 20 µM or not? not met

----------
experiment: Mouse pharmacokinetics, oral or intravenous cassette dosing; type: in vivo, mice (C57BL/6J); conditions: C57BL/6J, whole blood, male mice, 5 mg/kg oral, cassette, read-out: AUC0-24 h
OBSERVABLE: AUC(0-t) (ng·h/mL)
Please give a number only; it is taken to be in ng·h/mL.

Any idea what its AUC(0-t) is? The compound is "[2H]C([2H])(CC(C)(C)O)n1ncc(-c2onc(-c3c(F)cccc3Cl)c2-c2ncccn2)c1C(F)(F)F" 1040

----------
assay: Mouse pharmacokinetics, oral or intravenous cassette dosing; format: in vivo, mice (C57BL/6J); settings: C57BL/6J, whole blood, male mice, 5 mg/kg oral, cassette
OBSERVABLE: half-life (h)
Please give a number only; it is taken to be in h.

Any idea what its half-life is? The compound is "[2H]C([2H])(CC(C)(C)O)n1ncc(-c2onc(-c3c(F)cccc3Cl)c2-c2ncccn2)c1C(F)(F)F" 2.3

----------
molecular target: RORγt (Homo sapiens); assay: Indigo Biosciences Human RAR-related Orphan Receptor, Gamma Reporter Assay (in vitro inhibition of RORγt); conditions: RORγt reporter cells, luciferase readout, 22-24 h incubation; read-out: IC50 range
Sequence (P51449 269-508 limits assumed): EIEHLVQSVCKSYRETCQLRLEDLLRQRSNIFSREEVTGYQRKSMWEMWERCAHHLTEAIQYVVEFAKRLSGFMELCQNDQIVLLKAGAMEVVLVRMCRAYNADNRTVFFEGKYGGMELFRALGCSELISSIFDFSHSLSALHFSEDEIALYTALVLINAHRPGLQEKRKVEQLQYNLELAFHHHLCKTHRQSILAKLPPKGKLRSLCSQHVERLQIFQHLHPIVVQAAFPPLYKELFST
OBSERVABLE: IC50

ITEM_SMILES | EXPERIMENTAL_TARGET | EXPERIMENTAL_RESULT
[2H][C@]1(n2ncc(-c3onc(-c4c(F)cccc4Cl)c3-c3ncccn3)c2C(F)F)C[C@](C)(O)C1 | RORγt (Homo sapiens) | 100 to 1000 nM
[2H][C@]1(n2ncc(-c3onc(-c4ccccc4Cl)c3-c3ncccn3)c2C(F)(F)F)C[C@@](C)(O)C1 | RORγt (Homo sapiens) | 10 to 100 nM
[2H]C([2H])(OC(C)C)c1c(-c2c(F)cccc2Cl)noc1-c1cnn(-c2cccc(Cl)c2)c1C(F)(F)F | RORγt (Homo sapiens) | < 10 nM
[2H]C([2H])(OC1COC1)c1c(-c2c(F)cccc2Cl)noc1-c1cnn(-c2cccc(Cl)c2)c1C(F)(F)F | RORγt (Homo sapiens) | 10 to 100 nM
[2H]c1c([2H])c(F)c(-c2noc(-c3cnn(-c4cccc(Cl)c4)c3C(F)(F)F)c2C(=O)OC)c(Cl)c1[2H] | RORγt (Homo sapiens) | 10 to 100 nM
[2H][C@]1(n2ncc(-c3onc(-c4c(F)cccc4Cl)c3-c3ncccn3)c2C(F)(F)F)C[C@@](C)(O)C1 | RORγt (Homo sapiens) | 10 to 100 nM
[2H]C([2H])([C@H](C)O)n1ncc(-c2onc(-c3c(F)cccc3Cl)c2-c2ncccn2)c1C(F)(F)F | RORγt (Homo sapiens) | 10 to 100 nM
[2H]C([2H])(CC(C)(C)O)n1ncc(-c2onc(-c3c(F)cc(OCCN4CCOCC4)cc3Cl)c2-c2ncccn2)c1C(F)(F)F | RORγt (Homo sapiens) | 100 to 1000 nM

Any idea what its IC50 is? The compound is "[2H]C([2H])([2H])c1c(-c2onc(-c3c(F)cccc3Cl)c2-c2ncccn2)cnn1C([2H])([2H])CC(C)(C)O" 100 to 1000 nM

Any idea what its IC50 is? The compound is "[2H]c1nc(-c2c(-c3c(F)cccc3Cl)noc2-c2cnn(-c3cccc(Cl)c3)c2C(F)(F)F)sc1[2H]" 10 to 100 nM
